Target desc: KDR/VEGFR2 enzyme (Homo sapiens, UniProt P35968)
Sequence (P35968 790-1356 limits assumed): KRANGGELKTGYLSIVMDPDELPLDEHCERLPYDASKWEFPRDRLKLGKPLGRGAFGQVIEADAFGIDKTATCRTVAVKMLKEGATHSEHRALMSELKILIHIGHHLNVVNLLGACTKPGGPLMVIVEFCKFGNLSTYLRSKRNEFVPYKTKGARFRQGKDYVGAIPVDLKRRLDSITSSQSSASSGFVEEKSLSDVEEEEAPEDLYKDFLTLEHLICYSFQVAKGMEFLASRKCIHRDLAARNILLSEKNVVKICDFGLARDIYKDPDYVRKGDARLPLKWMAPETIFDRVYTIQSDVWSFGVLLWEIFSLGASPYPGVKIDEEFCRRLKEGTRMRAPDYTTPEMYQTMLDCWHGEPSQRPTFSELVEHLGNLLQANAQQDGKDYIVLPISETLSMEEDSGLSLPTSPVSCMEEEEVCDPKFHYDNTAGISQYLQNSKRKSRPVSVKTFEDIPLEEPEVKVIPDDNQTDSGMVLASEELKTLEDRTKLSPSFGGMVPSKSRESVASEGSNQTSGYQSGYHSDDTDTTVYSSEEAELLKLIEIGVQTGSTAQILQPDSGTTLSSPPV
Assay: Biochemical VEGFR Assay (ELISA)
Experimental context: Table 2, unit inferred; read-out: Biochem VEGFR2
Protocol: Compounds are tested for the ability to inhibit VEGF2 in an ELISA assay. […] Plates are then washed with 1×PBST using a plate washer, then blocked with 2% BSA in 1×PBST (100 μL/well) for 1 hr at room temperature. The NeutrAvidin-coated plates are again washed with 1×PBST using a plate washer. The mixed test compound/reaction solutions are added to the wells of the NeutrAvidin-coated plates (50 μL/well). […]

[
  {
    "Compound": "CC1(C)Oc2ccc(Nc3nc(Nc4ccc(N5CCOCC5)cc4)ncc3F)nc2NC1=O [Compound 3]",
    "Target desc": "KDR/VEGFR2 enzyme (Homo sapiens, UniProt P35968)",
    "IC50": "340 nM"
  },
  {
    "Compound": "CC1(C)Oc2ccc(Nc3nc(Nc4ccc(N5CCOCC5)nc4)ncc3F)nc2NC1=O [Compound 1]",
    "Target desc": "KDR/VEGFR2 enzyme (Homo sapiens, UniProt P35968)",
    "IC50": "770 nM"
  }
]
